Just for reference, patent US20050208463A1 is where these values come from.

Tested on: Lrp-like protein
Assay: Gel filtration analysis of changes in assemblies of the Lrp-like protein on mixing with potential ligands
Assay type: biochemical, Pyrococcus sp. OT3
Conditions: metabolic intermediate 10 mM; protein monomer approximately 100 μM; at least 30 minutes at room temperature; UV 220 nm
Experimental: Possible changes in assemblies of the Lrp-like protein induced by interaction with amino acids and metabolic intermediates were analyzed in solution using gel filtration. Gel filtration was carried out with the flow rate […], using a matrix (Protein Pak 125, 7.8×300 mm, Waters) and 50 mM Tris-HCl buffer (pH 7.0) containing 300 mM sodium chloride. Flow of the proteins was monitored by measuring the UV absorbance at 220 nm (LC Module I plus system, Waters). […]
assay-readout: change in gel filtration profile of the Lrp-like protein (peak increased)

{"columns": ["compound", "experimental-value"],
 "data": [
  ["O=C(O)CC(O)C(=O)O (stereo not shown)", "the third peak increased"],
  ["O=C(O)CC(=O)C(=O)O", "the third peak increased"]
]}
